The values you see were collected from patent US20140155415A1.

STUDY SYSTEM: GK-GKRP (glucokinase / glucokinase regulatory protein) (Homo sapiens, UniProt Q14397)
Sequence (Q14397 1-625): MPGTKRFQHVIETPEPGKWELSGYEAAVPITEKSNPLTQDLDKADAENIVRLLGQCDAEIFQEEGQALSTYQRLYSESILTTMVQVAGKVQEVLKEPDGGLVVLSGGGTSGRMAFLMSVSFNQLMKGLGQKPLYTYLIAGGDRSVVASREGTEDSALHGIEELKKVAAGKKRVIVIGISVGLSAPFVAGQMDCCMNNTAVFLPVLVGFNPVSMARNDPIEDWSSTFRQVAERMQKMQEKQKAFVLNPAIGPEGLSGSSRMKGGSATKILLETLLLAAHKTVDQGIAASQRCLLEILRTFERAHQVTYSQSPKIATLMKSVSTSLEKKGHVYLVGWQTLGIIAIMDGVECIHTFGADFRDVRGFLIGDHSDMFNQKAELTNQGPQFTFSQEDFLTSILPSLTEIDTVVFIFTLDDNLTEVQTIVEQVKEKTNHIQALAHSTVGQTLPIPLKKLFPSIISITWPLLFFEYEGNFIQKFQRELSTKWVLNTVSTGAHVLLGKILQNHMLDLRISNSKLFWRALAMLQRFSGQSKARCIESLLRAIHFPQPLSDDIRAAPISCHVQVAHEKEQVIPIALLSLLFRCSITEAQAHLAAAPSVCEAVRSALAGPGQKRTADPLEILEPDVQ
METHOD: GKRP LC MS/MS Biochemical Assay (LCMS/MS)
TEST SETTINGS: formation of 13C-glucose-6-phosphate from 13C-glucose by LC MS/MS, human His-hepatic GK, fructose-6-phosphate
pEC50: −log10 of the molar value.
MEASURED ATTRIBUTE: pEC50

Here is how some compounds turned out for pEC50.
{"COMPOUND": "COc1ccccc1C(NS(=O)(=O)c1ccc2c(c1)OCCCO2)c1nc2ccccc2s1 (racemic)", "pEC50": 7.17}
{"COMPOUND": "O=S(=O)(NC(c1cc2ccccc2o1)c1ccccc1C(F)(F)F)c1ccc2c(c1)OCCCO2 (racemic)", "pEC50": 6.49}
{"COMPOUND": "C=Cc1ccccc1C(NS(=O)(=O)c1ccc2c(c1)OCCCO2)c1cc2ccccc2s1 (racemic)", "pEC50": 7.51}
{"COMPOUND": "COc1ccccc1C(NS(=O)(=O)c1ccc2c(c1)OCCCO2)c1cc2cccnc2s1 (racemic)", "pEC50": 7.23}
{"COMPOUND": "Cc1ccsc1C(NS(=O)(=O)c1ccc2c(c1)OCCCO2)c1cc2ccccc2o1 (racemic)", "pEC50": 5.92}

(a) O=S(=O)(NC(c1cccc(O)c1)c1cc2ccccc2o1)c1ccc2c(c1)OCCCO2 (racemic)
(b) O=S(=O)(NC(c1ccccc1)c1cc2cc(O)ccc2s1)c1ccc2c(c1)OCCCO2 (racemic)
IN: // returns a or b , whichever has the lower pEC50 Write down the label attached to your selection.
OUT: b
(b: 5.49, a: 5.74)

* * *

STUDY SYSTEM: GK-GKRP (interaction between glucokinase and glucokinase regulatory protein) (Homo sapiens, UniProt Q14397)
Construct: made in house; host or cells: GKRP: baculovirus system
METHOD: GK-GKRP Binding Assay (Binding), AlphaScreen
TEST SETTINGS: avi-tagged GKRP, GK-fluorescein, AlphaScreen beads, 1 μM sorbitol-6-phosphate; read-out: GK-GKRP IC50 (Binding)
MEASURED ATTRIBUTE: IC50 (nM)

Here is how some molecules turned out for IC50.
{"MOLECULE": "CSc1ccccc1[C@@H](NS(=O)(=O)c1ccc2c(c1)OCCCO2)c1cc2ccccc2s1 (single isomer, unassigned) [Example 41 Peak #2]", "EXPERIMENTAL RESULT": 8}
{"MOLECULE": "CSc1ccccc1C(NS(=O)(=O)c1ccc2c(c1)OCCCO2)c1cc2cccnc2s1 (racemic) [Example 48]", "EXPERIMENTAL RESULT": 10}

(a) O=S(=O)(NC(c1ccccc1)c1cc2ccccc2o1)c1ccc2c(c1)OCC(F)CO2 (racemic) [Example 35]
(b) C#Cc1ccccc1C(NS(=O)(=O)c1ccc2c(c1)OCCCO2)c1cc2ccccc2s1 (racemic) [Example 39]
IN: // returns a or b , whichever has the lower IC50 Write down the label attached to your selection.
OUT: b
(b: 17 nM, a: 2300 nM)

(A) O=S(=O)(NC(c1ccccc1)c1cc2cc(O)ccc2s1)c1ccc2c(c1)OCCCO2 (racemic) [Example 63]
(B) CSc1ccccc1C(NS(=O)(=O)c1ccc2c(c1)OCCCO2)c1cc2ccncc2s1 (racemic) [Example 64]
(C) C[C@](O)(c1ccnc(-c2cccc3cc([C@H](NS(=O)(=O)c4ccc5c(c4)OCCCO5)c4ccccc4)sc23)c1)C(F)(F)F (single isomer, unassigned) [Example 70 Peak #2]
IN: Please list these molecules in decreasing order of IC50. Would you mind listing the labels in the order asked for?
OUT: A, C, B
(A: 4200 nM, C: 6 nM, B: 4 nM)

(1) CSc1ccccc1[C@@H](NS(=O)(=O)c1ccc2c(c1)OCCCO2)c1cc2ccncc2s1 (single isomer, unassigned) [Example 64 Peak #2]
(2) C[C@](O)(c1ccnc(-c2cccc3cc([C@@H](NS(=O)(=O)c4ccc5c(c4)OCCCO5)c4ccccc4)sc23)c1)C(F)(F)F (single isomer, unassigned) [Example 70 Peak #4]
(3) O=S(=O)(NC(c1ccccc1)c1ccc2ccccc2c1)c1ccc2c(c1)OCCCO2 (racemic) [Example 55]
(4) CCc1ccccc1C(NS(=O)(=O)c1ccc2c(c1)OCCCO2)c1cc2ccccc2o1 (racemic) [Example 6]
IN: Sort entries by IC50 from minimum to maximum value. Would you mind listing the labels in the order asked for?
OUT: 1, 2, 4, 3
(1: 1 nM, 2: 110 nM, 4: 220 nM, 3: 860 nM)

(A) COc1cccnc1C(NS(=O)(=O)c1ccc2c(c1)OCCCO2)c1cc2ccccc2o1 (racemic) [Example 30]
(B) CSc1ccccc1[C@H](NS(=O)(=O)c1ccc2c(c1)OCCCO2)c1cc2ccccc2o1 (single isomer, unassigned) [Example 19 Peak #1]
IN: Identify the entry with the larger IC50. Options: A and B Write down the label attached to your selection.
OUT: B

* * *

STUDY SYSTEM: GK-GKRP (glucokinase / glucokinase regulatory protein) (Homo sapiens)
Sequence (Q14397 1-625): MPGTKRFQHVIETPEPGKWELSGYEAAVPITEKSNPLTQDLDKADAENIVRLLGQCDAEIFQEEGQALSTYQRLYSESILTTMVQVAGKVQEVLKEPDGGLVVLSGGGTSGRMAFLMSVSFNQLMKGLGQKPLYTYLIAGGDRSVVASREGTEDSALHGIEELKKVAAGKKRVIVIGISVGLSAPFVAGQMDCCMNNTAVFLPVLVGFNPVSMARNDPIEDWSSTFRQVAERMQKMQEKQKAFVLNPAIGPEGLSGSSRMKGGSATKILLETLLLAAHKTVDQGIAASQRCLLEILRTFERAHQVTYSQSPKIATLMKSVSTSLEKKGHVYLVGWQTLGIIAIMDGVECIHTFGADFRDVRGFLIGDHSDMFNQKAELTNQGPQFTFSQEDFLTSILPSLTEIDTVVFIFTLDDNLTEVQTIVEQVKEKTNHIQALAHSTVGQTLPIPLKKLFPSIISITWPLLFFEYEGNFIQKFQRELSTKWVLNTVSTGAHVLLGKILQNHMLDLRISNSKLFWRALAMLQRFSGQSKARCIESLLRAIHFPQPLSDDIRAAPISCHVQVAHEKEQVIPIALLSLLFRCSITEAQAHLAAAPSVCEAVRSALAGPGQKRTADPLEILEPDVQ
METHOD: GKRP LC MS/MS Biochemical Assay (LCMS/MS)
TEST SETTINGS: formation of 13C-glucose-6-phosphate from 13C-glucose by LC MS/MS, human His-hepatic GK, fructose-6-phosphate
MEASURED ATTRIBUTE: EC50 (nM)

(a) Cc1ccccc1[C@@H](NS(=O)(=O)c1ccc2c(c1)OCCCO2)c1cc2ccccc2o1 (single isomer, unassigned) [Example 2 Peak #2]
(b) C#Cc1ccccc1C(NS(=O)(=O)c1ccc2c(c1)OCCCO2)c1cc2ccccc2o1 (racemic)
(c) O=S(=O)(NC(c1ccccn1)c1cc2ccccc2o1)c1ccc2c(c1)OCCCO2 (racemic)
(d) O=S(=O)(NC(c1cccc(F)c1)c1cc2ccccc2o1)c1ccc2c(c1)OCCCO2 (racemic)
(e) O=S(=O)(NC(c1ccccc1)c1cc2ccccc2s1)c1ccc2c(c1)OCCCO2 (racemic)
IN: Endpoint returns the given compounds ordered by ascending EC50. Would you mind listing the labels in the order asked for?
OUT: a, b, e, c, d

(A) O=S(=O)(NC(c1cc2ccccc2o1)c1ccncc1Cl)c1ccc2c(c1)OCCCO2 (racemic)
(B) Cc1ccccc1C(NS(=O)(=O)c1ccc2c(c1)OCCCO2)c1cc2ccccc2s1 (racemic)
(C) CCc1ccccc1[C@@H](NS(=O)(=O)c1ccc2c(c1)OCCCO2)c1cc2ccccc2s1 (single isomer, unassigned) [Example 37 Peak #2]
IN: Please list these compounds in decreasing order of EC50. Would you mind listing the labels in the order asked for?
OUT: A, B, C

(1) O=S(=O)(NC(c1ccccc1)c1ccc2ccccc2c1)c1ccc2c(c1)OCCCO2 (racemic)
(2) CSc1ccccc1[C@@H](NS(=O)(=O)c1ccc2c(c1)OCCCO2)c1cc2ccncc2s1 (single isomer, unassigned) [Example 64 Peak #2]
IN: Identify the entry with the larger EC50. Options: 1 and 2 Write down the label attached to your selection.
OUT: 1

(P) O=S(=O)(NC(c1ccsc1)c1cc2ccccc2o1)c1ccc2c(c1)OCCCO2 (racemic)
(Q) COc1cnccc1C(NS(=O)(=O)c1ccc2c(c1)OCCCO2)c1cc2cccnc2s1 (racemic)
IN: Identify the entry with the larger EC50. Options: P and Q Write down the label attached to your selection.
OUT: P

(P) O=S(=O)(NC(c1ccccc1)c1cc2cnccc2s1)c1ccc2c(c1)OCCCO2 (racemic)
(Q) CSc1ccccc1C(NS(=O)(=O)c1ccc2c(c1)OCCCO2)c1nc2cccnc2s1 (racemic)
IN: // returns P or Q , whichever has the lower EC50 Write down the label attached to your selection.
OUT: Q
